- ASSAY: Selectivity: imprinting factor of multi-template sol-gel MIP vs NIP
- Format: binding
- ASSAY_CONDITIONS: extraction from protein precipitated milk
Labelling field: enter met if recorded Imprinting Factor (IF) is less than 2. Enter not met if it equals or exceeds that cut-off.

Please review the entries below; each comes with its answer.
MOLECULE: Nc1ccc(S(=O)(=O)Nc2ncccn2)cc1 [Sulfadiazine]
CATEGORY_LABEL: met
//
MOLECULE: Nc1ccc(S(=O)(=O)Nc2nccs2)cc1 [Sulfathiazole]
CATEGORY_LABEL: not met
//
MOLECULE: Cc1ccnc(NS(=O)(=O)c2ccc(N)cc2)n1 [Sulfamerazine]
CATEGORY_LABEL: met
//
MOLECULE: Nc1ccc(S(N)(=O)=O)cc1 [Sulfanilamide]
CATEGORY_LABEL: met

Now examine the next entry.
Consider CC(=O)NS(=O)(=O)c1ccc(N)cc1 [Sulfacetamide] . Does its Imprinting Factor (IF) lie strictly below 2?
not met
